system: M14; assay: NCI tumour cell line growth inhibition, 48 h
The source made the active and inactive calls. Rule as the data show it: active = GI50 up to about 1.1 µM and inactive = higher.
Returns: one label drawn from Yes = active, No = inactive

Completed entries (count: 3):
Molecule: Cc1nc2ccccc2nc1-c1ccc(/N=[N+](\[O-])c2ccc(-c3nc4ccccc4nc3C)cc2)cc1
Classification: No
//
Molecule: CCC1=C(C(C)=O)[C@@H]2CCCCC[C@@H](C(=O)OC)C2C1=O (stereo partly drawn)
Classification: No
//
Molecule: CCCNC(=O)Nc1c([N+](=O)[O-])cc(C(F)(F)F)cc1[N+](=O)[O-]
Classification: No

query: Which outcome was assigned to "Cc1ccc(S(=O)(=O)NNC(=O)Nc2cccc(C(F)(F)F)c2)cc1" in this test?
result: No

query: Which outcome was assigned to CCOC(=O)C(CC(C)C)NC(=O)C(Cc1ccc(N(CCCl)CCCl)cc1)NC(C)=O (stereo not drawn) in this test?
result: No

query: Which outcome was assigned to "CC(C)(/C=N\O)NO" in this test?
result: No

query: Which outcome was assigned to COc1ccc2oc3c4c2c1CCC4CCC3=O (stereo not drawn) in this test?
result: No

query: Which outcome was assigned to "CC(=O)On1c(-c2ccccc2-c2nc3ccccc3n2OC(C)=O)nc2ccccc21" in this test?
result: No

query: Which outcome was assigned to "COc1ccc(-n2c(=O)n(C)c(=O)n2-c2c(C)c(C)c(C)c(C)c2C)cc1" in this test?
result: No

----------
system: SNB-75; assay: NCI tumour cell line growth inhibition, 48 h
Activity calls are given as the source filed them. Rule as the data show it: active = GI50 up to about 1.1 µM and inactive = higher.
Observation Type: GI50

Use the examples below as a reference point.
Molecule: COc1ccc2oc3c4c2c1CCC4CCC3=O (stereo not given)
GI50: 28.1 µM (inactive)
--
Molecule: c1ccc([P+](c2ccccc2)(c2ccccc2)C2Sc3ccccc3S2)cc1
GI50: 17.8 µM (inactive)
--
Molecule: CC1(C)C(OC(=O)c2ccccc2)C[C@]23CCC[C@](C)(C[C@@H](O)C12)C3 (stereo not given in full)
GI50: 18.9 µM (inactive)
--
Molecule: CC(C)c1cccc(C(C)C)c1NC(=O)C(=O)C1CCC2=C(Sc3ccccc3N2)C1=O (stereo not given)
GI50: 32.3 µM (inactive)

Consider the record given below.
So, "CCOc1ccc2c(c1)[n+]([O-])c(S(=O)(=O)c1ccc(C)cc1)c(N)[n+]2[O-]" ? Its GI50 was 91.6 µM (inactive)

----------
GI50: recorded values
test system: UACC-62; test: NCI tumour cell line growth inhibition, 48 h
Calls of active or inactive are those of the source. No stated cut-off is given here; in the data, active = GI50 up to about 1.1 µM and inactive = higher.

Use the examples below as a reference point.
Molecule: O=C(O)CNS(=O)(=O)c1ccc(NCc2ccccc2)cc1
GI50: > 100 µM (inactive)
--
Molecule: CC1(C)C(OC(=O)c2ccccc2)C[C@]23CCC[C@](C)(C[C@@H](O)C12)C3 (stereo partly specified)
GI50: 15.2 µM (inactive)
--
Molecule: O=C(/C=C/c1cccs1)c1ccc(C(=O)/C=C/c2cccs2)cc1
GI50: > 100 µM (inactive)

# value of GI50, UACC-62, item "COc1ccccc1/N=N/c1c(-c2ccccc2)nn(C(=O)CC(=O)Nc2ccccc2Cl)c1-c1ccccc1" = > 100 µM (inactive)

# value of GI50, UACC-62, item COCCOCOC(CCCCO)c1cc(C)c(O[Si](C)(C)C(C)(C)C)c(C)c1 (stereo unspecified) = 12.2 µM (inactive)

# value of GI50, UACC-62, item "C#CCCCC(=C)C[C@H](OCc1ccccc1)[C@H]1OC(=O)[C@@H]1C" = > 100 µM (inactive)

# value of GI50, UACC-62, item "COc1ccc(-c2ccc(CC(=O)O)cc2)cc1OC" = > 100 µM (inactive)

# value of GI50, UACC-62, item CC1=CCC2(C#N)CCC1C2O (stereo unspecified) = > 100 µM (inactive)

# value of GI50, UACC-62, item "O=C(/C=C/c1c(O)ccc2ccccc12)c1cccc2ccccc12" = > 100 µM (inactive)

# value of GI50, UACC-62, item NC(Cc1ccc(O)c(O)c1)P(=O)(O)O (stereo unspecified) = > 100 µM (inactive)

# value of GI50, UACC-62, item CC1(C)C(C(=O)OC(C#N)c2cccc(OCC(=O)OCc3ccccc3)c2)C1(C)C (stereo unspecified) = > 100 µM (inactive)

----------
test system: LXFL 529; experiment: NCI tumour cell line growth inhibition, 48 h
Calls of active or inactive are those of the source. Cut-off read from the data, not from the text of the source: active = GI50 up to about 1.1 µM and inactive = higher.
Returns: one label drawn from T for active, F for inactive

Compound: COC1OC(COCc2ccc(Cl)cc2)C(OCc2ccc(Cl)cc2)C1N=[N+]=[N-] (centres undefined)
Classification: F
--
Compound: COc1cc2c(cc1OC)C(=O)Cc1ccc3c(c1CNCC2)OCO3
Classification: F
--
Compound: CCC1(O)C[C@H]2CN(CCCc3c([nH]c4ccccc34)[C@@](C(=O)OC)(c3cc4c(cc3OC)N(C)C3[C@](O)(C(=O)OC)[C@H](OC(C)=O)[C@]5(CC)C=CCN6CC[C@]43[C@H]65)C2)C1 (some centres undefined)
Classification: T
--
Compound: CN(C)c1ccc(/C=C/C(=O)C(C)(C)C)cc1Br
Classification: F
--
Compound: Cc1nc2c(nc1C)C(=O)C1=C(C2=O)C2C=CC1CC2
Classification: F

query: Which outcome was assigned to "O=C(O)CNS(=O)(=O)c1ccc(NCc2ccccc2)cc1" in this test?
result: F

query: Which outcome was assigned to "O=C(Nc1nc2ncn(CCOC(=O)c3ccccc3)c2c(=S)[nH]1)c1ccccc1" in this test?
result: F

query: Which outcome was assigned to "COc1ccc2c(NCCCCCCNc3c4ccccc4nc4cc(OC)ccc34)c3ccccc3nc2c1" in this test?
result: T

query: Which outcome was assigned to "O=C(/C=C/c1c(O)ccc2ccccc12)c1cccc2ccccc12" in this test?
result: F

----------
system: MOLT-4; experiment: NCI tumour cell line growth inhibition, 48 h
Active and inactive are the calls of the source. Cut-off read from the data, not from the text of the source: active = GI50 up to about 1.1 µM and inactive = higher.
Returns: one label drawn from class 1 (active), class 0 (inactive)

Completed entries (count: 3):
Compound: CC(=O)/C(=C/N1CCNC1=S)C(=O)Nc1ccccc1C
Classification: class 0
//
Compound: Cc1ccc2[nH]c3c(C)c4cc[n+](C)cc4c(C)c3c2c1
Classification: class 0
//
Compound: COc1cc([C@@H]2c3cc4c(cc3[C@@H](OC(=O)c3cccc(N)c3)C3COC(=O)[C@@H]32)OCO4)cc(OC)c1O (stereo partly specified)
Classification: class 0

query: Which outcome was assigned to "Cc1ccc(Oc2ccc(C)cc2N)cc1" in this test?
result: class 0

query: Which outcome was assigned to "Cc1cc(=O)n2nc(CN3CCCCC3)sc2n1" in this test?
result: class 0

query: Which outcome was assigned to "CN=[S+]([O-])(c1ccccc1)c1ccccc1" in this test?
result: class 0

query: Which outcome was assigned to COC1/C=C\C=C(/C)C(=O)NC2=CC(=O)C=C(C2=O)C(OC)C(C)CC(OC)C(OC)C(C)/C=C(/C)C1OC(N)=O (stereo unspecified) in this test?
result: class 1

query: Which outcome was assigned to NC(Cc1ccc(O)c(O)c1)P(=O)(O)O (stereo unspecified) in this test?
result: class 0

query: Which outcome was assigned to "Cc1ccc(C(=O)N(C(C)C)C(C)C)cc1/N=N/N(C)C" in this test?
result: class 0

query: Which outcome was assigned to COC(=O)C(=O)C(C#N)c1nc2ccccc2s1 (stereo unspecified) in this test?
result: class 0

query: Which outcome was assigned to "O=C(O)/C=C/C(=O)Nc1nc[nH]n1" in this test?
result: class 0

----------
system: HCT-116; test: NCI tumour cell line growth inhibition, 48 h
Activity calls are given as the source filed them. Rule as the data show it: active = GI50 up to about 1.1 µM and inactive = higher.
Observation Type: GI50

Use the examples below as a reference point.
Compound: C#CCOC(=O)[C@@H](C)c1ccc2cc(OC)ccc2c1
Observation Type: GI50
Test Result: > 100 µM (inactive)
//
Compound: O=C1c2ccccc2C(=O)C1(O)c1c[nH]c2ccccc12
Observation Type: GI50
Test Result: > 100 µM (inactive)
//
Compound: CCOC(=O)/C=C/C1OC(C)(C)OC1/C=C/C(=O)OCC (stereo not given)
Observation Type: GI50
Test Result: 30.8 µM (inactive)

So, O=C(CC(c1ccccc1)c1c(O)c2ccccc2oc1=O)c1ccccc1 (stereo not given) ? Its GI50 was > 84.5 µM (inactive)

So, "CCCNC(=O)Nc1c([N+](=O)[O-])cc(C(F)(F)F)cc1[N+](=O)[O-]" ? Its GI50 was 25.3 µM (inactive)

So, "Cc1cnc2nc(-c3ccc(Cl)cc3)cc(O)c2c1" ? Its GI50 was 3.84 µM (inactive)

So, N#CC1=C(N)n2c(s/c(=C\c3ccc(Cl)cc3)c2=O)=C(c2nc3ccccc3[nH]2)C1c1ccc(Cl)cc1 (stereo not given) ? Its GI50 was 1.82 µM (inactive)

So, CC(=O)Nc1c(C)cc2c(nc3n2CCC3OC(C)=O)c1[N+](=O)[O-] (stereo not given) ? Its GI50 was > 100 µM (inactive)

So, "NC(=S)N/N=C(\CCC(=O)Nc1ccccc1[N+](=O)[O-])CC(=O)c1ccco1" ? Its GI50 was > 100 µM (inactive)

So, "O=C(Cc1ccccc1)NCCc1ccc(O)c(O)c1" ? Its GI50 was > 100 µM (inactive)
